- System: woolly cupgrass (Eriochloa villosa)
- protocol_text: Test B pre-/postemergence plant response
- Type: in vivo
- particulars: Postemergence, 31 g ai/ha; 0 to 100 scale (0 no effect, 100 complete control)
observable: Plant response rating, Cupgrass, Woolly

compound | target_of_assay | observable | reported_measurement
CCn1c(-c2ccccc2)ncc(C(=O)C2=C(O)C3CCC(C3)C2=O)c1=O (stereo not drawn) | woolly cupgrass (Eriochloa villosa) | Plant response rating, Cupgrass, Woolly | 75
CCCCn1c(-c2cc(F)cc(F)c2)ncc(C(=O)C2=C(O)C3CCC(C3)C2=O)c1=O (stereo not drawn) | woolly cupgrass (Eriochloa villosa) | Plant response rating, Cupgrass, Woolly | 100
COc1ccc(-n2c(-c3ccccc3)ncc(C(=O)C3=C(O)CCCC3=O)c2=O)cc1OC | woolly cupgrass (Eriochloa villosa) | Plant response rating, Cupgrass, Woolly | 40
O=C1CCCC(O)=C1C(=O)c1cnc(-c2ccccc2)n(C2CCSCC2)c1=O | woolly cupgrass (Eriochloa villosa) | Plant response rating, Cupgrass, Woolly | 75
CCCCn1c(-c2cccc(Cl)c2)ncc(C(=O)C2=C(O)CCCC2=O)c1=O | woolly cupgrass (Eriochloa villosa) | Plant response rating, Cupgrass, Woolly | 60
COCCn1c(-c2ccsc2)ncc(C(=O)C2=C(O)C3CCC(C3)C2=O)c1=O (stereo not drawn) | woolly cupgrass (Eriochloa villosa) | Plant response rating, Cupgrass, Woolly | 75

====

- Tested on: Surinam grass (Brachiaria decumbens)
- protocol_text: Test B pre-/postemergence plant response
- Type: in vivo
- particulars: Postemergence, 250 g ai/ha; scale 0 to 100 (0 no effect, 100 complete control); 13 to 15 days
Measured Plant response rating, Surinam Grass, listed per entry.

compound | target_of_assay | Plant response rating, Surinam Grass
CCCn1c(-c2ccsc2)ncc(C(=O)C2=C(O)C3CCC(C3)C2=O)c1=O (stereo not shown) | Surinam grass (Brachiaria decumbens) | 95
CCCn1c(-c2cc(C)cc(C)c2)ncc(C(=O)C2=C(O)CCCC2=O)c1=O | Surinam grass (Brachiaria decumbens) | 70
CCCn1c(-c2cccc(Cl)c2)ncc(C(=O)C2=C(O)CCCC2=O)c1=O | Surinam grass (Brachiaria decumbens) | 90
CCCn1c(-c2cccc(Br)c2)ncc(C(=O)C2=C(O)CCCC2=O)c1=O | Surinam grass (Brachiaria decumbens) | 75

====

- Test system: downy bromegrass (Bromus tectorum)
- protocol_text: Test B pre-/postemergence plant response
- Type: in vivo
- particulars: Postemergence, 31 g ai/ha; 0 to 100 scale (0 no effect, 100 complete control)

molecule | Plant response rating, Bromegrass, Downy
Cc1ccccc1-n1c(-c2cc(F)cc(F)c2)ncc(C(=O)C2=C(O)CCCC2=O)c1=O | 50
CCCn1c(-c2cc(C)cc(C)c2)ncc(C(=O)C2=C(O)CCCC2=O)c1=O | 10
COCCn1c(-c2cccc(F)c2)ncc(C(=O)C2=C(O)C3CCC(C3)C2=O)c1=O (stereo not drawn) | 10
Cc1cc(-n2c(-c3cccc(F)c3)ncc(C(=O)C3=C(O)CCCC3=O)c2=O)ccc1F | 35
O=C1CCCC(O)=C1C(=O)c1cnc(-c2cccs2)n(C2CCCCC2)c1=O | 0
COCCn1c(-c2cccc(F)c2)ncc(C(=O)C2=C(O)CCCC2=O)c1=O | 0

====

- Test system: barnyardgrass (Echinochloa crus-galli)
- protocol_text: Test A pre-/postemergence plant response
- Format: in vivo
- particulars: Preemergence, 500 g ai/ha; visual injury, 0 to 100 scale (0 no effect, 100 complete control), approx. ten days
- From the text: Seeds of barnyardgrass (Echinochloa crus-galli), large crabgrass (Digitaria sanguinalis), giant foxtail (Setaria faberii), morningglory (Ipomoea spp.), pigweed (Amaranthus retroflexus), velvetleaf (Abutilon theophrasti), wheat (Triticum aestivum) and corn (Zea mays) were planted into a blend of loam soil and sand and treated preemergence with a directed soil spray using test chemicals formulated in a non-phytotoxic solvent mixture which included a surfactant. […]
Listing: Plant response rating, Barnyardgrass of selected compounds

compound | target_of_assay | Plant response rating, Barnyardgrass
O=C1CCCC(O)=C1C(=O)c1cnc(-c2ccccc2)n(-c2cccc(Br)c2)c1=O [Compound 38] | barnyardgrass (Echinochloa crus-galli) | 90
CCCn1c(-c2cccc(Br)c2)ncc(C(=O)C2=C(O)CCCC2=O)c1=O [Compound 141] | barnyardgrass (Echinochloa crus-galli) | 100
CCn1ncc(C(=O)c2cnc(-c3ccccc3)n(-c3ccccc3)c2=O)c1OS(=O)(=O)c1ccc(C)cc1 [Compound 16] | barnyardgrass (Echinochloa crus-galli) | 70
CCn1c(-c2cccc(C)c2)ncc(C(=O)C2=C(O)CCCC2=O)c1=O [Compound 115] | barnyardgrass (Echinochloa crus-galli) | 80
CCCn1c(-c2cc(C)cc(C)c2)ncc(C(=O)C2=C(O)CCCC2=O)c1=O [Compound 156] | barnyardgrass (Echinochloa crus-galli) | 80
Cc1cc(-n2c(-c3cccc(Cl)c3)ncc(C(=O)C3=C(O)CCCC3=O)c2=O)ccc1F [Compound 133] | barnyardgrass (Echinochloa crus-galli) | 100
O=C1CCCC(O)=C1C(=O)c1cnc(-c2ccccc2Br)n(-c2ccccc2)c1=O [Compound 71] | barnyardgrass (Echinochloa crus-galli) | 0
CCCn1c(-c2cccs2)ncc(C(=O)C2=C(O)CCCC2=O)c1=O [Compound 77] | barnyardgrass (Echinochloa crus-galli) | 50
CCCc1ncc(C(=O)C2=C(O)CCCC2=O)c(=O)n1Cc1cccc(OC)c1 [Compound 104] | barnyardgrass (Echinochloa crus-galli) | 0
COCCn1c(-c2ccccc2)ncc(C(=O)C2=C(O)CCCC2=O)c1=O [Compound 85] | barnyardgrass (Echinochloa crus-galli) | 100
CC(C)CC(=O)OC1=C(C(=O)c2cnc(-c3ccccc3)n(-c3ccccc3)c2=O)C(=O)CCC1 [Compound 83] | barnyardgrass (Echinochloa crus-galli) | 90
Cc1cc(C)cc(-n2c(-c3ccccc3)ncc(C(=O)C3=C(O)CCCC3=O)c2=O)c1 [Compound 33] | barnyardgrass (Echinochloa crus-galli) | 90
Cc1cc(-n2c(-c3ccccc3)ncc(C(=O)C3=C(O)CCCC3=O)c2=O)ccc1F [Compound 53] | barnyardgrass (Echinochloa crus-galli) | 100
CCCCc1ncc(C(=O)C2=C(O)CCCC2=O)c(=O)n1-c1cccc(C)c1 [Compound 63] | barnyardgrass (Echinochloa crus-galli) | 90
CSc1ncc(C(=O)C2=C(O)CCCC2=O)c(=O)n1-c1ccccc1 [Compound 30] | barnyardgrass (Echinochloa crus-galli) | 40
Cc1ccc(Cl)cc1-n1c(-c2cccc(Br)c2)ncc(C(=O)C2=C(O)CCCC2=O)c1=O [Compound 144] | barnyardgrass (Echinochloa crus-galli) | 20
CCCc1ncc(C(=O)C2=C(O)CCCC2=O)c(=O)n1CC1CCCO1 (stereo not drawn) [Compound 74] | barnyardgrass (Echinochloa crus-galli) | 60
Cc1cccc(Cl)c1-n1c(-c2ccccc2)ncc(C(=O)C2=C(O)CCCC2=O)c1=O [Compound 46] | barnyardgrass (Echinochloa crus-galli) | 50
CCCCn1c(-c2cccc(C)c2)ncc(C(=O)C2=C(O)CCCC2=O)c1=O [Compound 116] | barnyardgrass (Echinochloa crus-galli) | 70
COCCCn1c(-c2cccc(Br)c2)ncc(C(=O)C2=C(O)CCCC2=O)c1=O [Compound 140] | barnyardgrass (Echinochloa crus-galli) | 100
O=C1CCCC(O)=C1C(=O)c1cnc(-c2ccccc2Cl)n(-c2ccccc2)c1=O [Compound 35] | barnyardgrass (Echinochloa crus-galli) | 0
COCCn1c(-c2cc(F)cc(F)c2)ncc(C(=O)C2=C(O)CCCC2=O)c1=O [Compound 119] | barnyardgrass (Echinochloa crus-galli) | 100
Cc1ccc(-c2ncc(C(=O)C3=C(O)CCCC3=O)c(=O)n2-c2ccccc2)cc1 [Compound 80] | barnyardgrass (Echinochloa crus-galli) | 10
Cc1c(Cl)cccc1-n1c(-c2ccccc2)ncc(C(=O)C2=C(O)CCCC2=O)c1=O [Compound 40] | barnyardgrass (Echinochloa crus-galli) | 100
